Values from ChEMBL document CHEMBL1134345

# TARGET_OR_TEST_SYSTEM: Macrophage migration inhibitory factor (Homo sapiens, UniProt P14174)
# Sequence (P14174 whole entry): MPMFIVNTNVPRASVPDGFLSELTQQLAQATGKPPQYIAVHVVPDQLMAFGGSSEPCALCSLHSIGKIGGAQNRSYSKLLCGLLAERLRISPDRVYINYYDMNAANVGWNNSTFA
QUANTITY_KIND: pIC50
Please treat pIC50 as minus the base-10 logarithm of the molar concentration.

q: Which pIC50 is reported with Macrophage migration inhibitory factor (Homo sapiens, UniProt P14174) for this entry: CCCCCCSC[C@H](NC(=O)CC[C@H](N)C(=O)O)C(=O)NCC(=O)O ?
a: 2.48
